Reference for the values: the supplement of paper PMC11451515

# System: NOMO1
# Protocol description: cell viability relative to DMSO control; higher = less cytotoxic
# Condition: HPLM + 10% dialyzed FBS; 48 h; 5.12 µM
Hi there, I'd appreciate the recorded cell viability for every entry that follows.
# output: numeric value plus its unit

CC(C)n1cnc2c(NCCc3ccc(O)cc3)nc(-c3csc4ccccc34)nc21 :: 51.1%
CO[C@@H]1[C@@H](O)[C@H](O)[C@@H](n2c3c(Cl)cccc3c3c4c(c5c6cccc(Cl)c6[nH]c5c32)C(=O)NC4=O)O[C@H]1CO :: 30.5%

Turning to the following molecule.
Lookup: Report cell viability for O=[S+]([O-])(NCCNC/C=C/c1ccc(Br)cc1)c1cccc2cnccc12 please.
Found: 95.4%

###

Hi there, I'd appreciate the recorded cell viability for every entry that follows.
# Test system: P12-Ichikawa
# Protocol description: cell viability relative to DMSO control; higher = less cytotoxic
# Condition: RPMI 5 mM glucose + 10% FBS; 48 h; 46.1 µM
# output: numeric value plus its unit

# example entries with known answers
CC(C)[N+]1(C)C2CCC1CC(OC(=O)C(CO)c1ccccc1)C2.O.[Br-] (stereo not drawn) :: 13.8%
COC(=O)[C@H](c1ccccc1Cl)N1CCc2sccc2C1 :: 14.1%

Turning to the following molecule.
Lookup: Report cell viability for O=C(NCC1CCOCC1)c1cnc(Nc2ccc(Cl)cc2Cl)nc1C(F)(F)F please.
Found: 118%

###

# Tested on: SEM cells
# Protocol description: cell viability relative to DMSO control; higher = less cytotoxic
# Condition: RPMI 5 mM glucose + 10% dialyzed FBS; 48 h; 1.71 µM
Hi there, I'd appreciate the recorded cell viability for every entry that follows.
Answers are plain numbers, in %.

# example entries with known answers
CC(C)c1c(C(=O)Nc2ccccc2)c(-c2ccccc2)c(-c2ccc(F)cc2)n1CC[C@@H](O)C[C@@H](O)CC(=O)[O-] :: 97.8
NC[C@H]1O[C@H](O[C@H]2[C@H](O)[C@@H](O[C@H]3O[C@H](CO)[C@@H](O)[C@H](N)[C@H]3O)[C@H](N)C[C@@H]2N)[C@H](N)C[C@@H]1O :: 104
Nc1nc(N)c(N=O)c(OCC2CCCCC2)n1 :: 79

Provide cell viability for all items below, preserving their order.
1. CS[C@H]1SC[C@@H]2C(=O)N(C)[C@H](C(C)C)C(=O)OC[C@H](NC(=O)c3cnc4ccccc4n3)C(=O)N[C@H](C)C(=O)N(C)[C@H]1C(=O)N(C)[C@H](C(C)C)C(=O)OC[C@H](NC(=O)c1cnc3ccccc3n1)C(=O)N[C@H](C)C(=O)N2C
2. CCOC(=O)N[C@@H]1CC[C@@H]2[C@@H](C1)C[C@H]1C(=O)O[C@H](C)[C@H]1[C@H]2/C=C/c1ccc(-c2cccc(F)c2)cn1

Found:
8.65
119

Provide cell viability for all items below, preserving their order.
1. Oc1ccc2ccccc2c1SSc1c(O)ccc2ccccc12
2. CCCCCCCCCCCC/1=C(O)/C(=O)/C=C(O)\C1=O
3. Cn1cnc([N+](=O)[O-])c1Sc1ncnc2nc[nH]c12
4. CCOCC(O)COc1ccc(NC(=O)CC[S+](C)C)cc1 (stereo not given)
5. CCOC(=O)O[C@]1(C(=O)OCCl)CC[C@H]2[C@@H]3CCC4=CC(=O)C=C[C@]4(C)[C@H]3[C@@H](O)C[C@@]21C

Found:
104
140
32.1
102
89.3

###

# System: SEM cells
# Protocol description: cell viability relative to DMSO control; higher = less cytotoxic
# Condition: RPMI 5 mM glucose + 10% dialyzed FBS; 48 h; 0.000781 µM
Values of cell viability strictly less than 80% map to Y, and values of at least 80% map to N.

Cc1cnc(Nc2ccc(CN3CCOCC3)cc2)nc1Nc1cccc([S+](=O)([O-])NC(C)(C)C)c1 :: Y
CCOCC(O)COc1ccc(NC(=O)CC[S+](C)C)cc1 (stereo unspecified) :: Y
C1CN\2C[C@@H](\N=C2S1)C3=CC=CC=C3 :: N
CCN(CC)CCCC(C)Nc1nc(C)cc(Nc2ccc3nc(C)cc(N)c3c2)n1 (stereo unspecified) :: N
NNc1nncc2ccccc12 :: N

Shift focus to the following entry.
Lookup: Input O=C(NCc1ccccc1)c1csc(Nc2ccncn2)n1 ; condition: cell viability strictly below 80%. Does it hold?
Found: N

###

# System: P12-Ichikawa
# Protocol description: cell viability relative to DMSO control; higher = less cytotoxic
# Condition: HPLM + 10% dialyzed FBS; 48 h; 0.569 µM
Readout name: cell viability (%)
One number for each entry, in %.

# example entries with known answers
CN(C(Cc1ccc(O[S+](=O)([O-])c2cccc3cnccc23)cc1)C(=O)N1CCN(c2ccccc2)CC1)[S+](=O)([O-])c1cccc2cnccc12 (centres undefined) :: 114
Oc1c(Cl)cc(Cl)c2cccnc12 :: 112
CC(C)n1cnc2c(NCCc3ccc(O)cc3)nc(-c3csc4ccccc34)nc21 :: 107

Provide cell viability for all items below, preserving their order.
1. Cc1ccc(/C=N/NC(=O)c2ccccc2Oc2ccccc2)o1
2. N#Cc1ccnc(N2C(=O)CC[C@H]2C(=O)N(c2cncc(F)c2)[C@H](C(=O)NC2CC(F)(F)C2)c2ccccc2Cl)c1
3. COc1cc2ncn(-c3cc(OCc4ccccc4C(F)(F)F)c(C(N)=O)s3)c2cc1OC
4. O=[S+]([O-])(NCCNC/C=C/c1ccc(Br)cc1)c1cccc2cnccc12

Found:
1: 94.6; 2: 74.8; 3: 95.2; 4: 106

Provide cell viability for all items below, preserving their order.
1. CC1=C(/C=C/C(C)=C/C=C/C(C)=C/C(=O)O)C(C)(C)CCC1
2. C[N]1N=CC=C1C/2=C(\C)N(C(=O)C(=C2)/C(=O)NCC3=NC=C(C=C3)[S+](C)([O-])=O)C4=CC=CC(=C4)C(F)(F)F

Found:
1. 132
2. 105

###

# Test system: P12-Ichikawa
# Protocol description: cell viability relative to DMSO control; higher = less cytotoxic
# Condition: RPMI 5 mM glucose + 10% dialyzed FBS; 48 h; 0.0211 µM
Readout name: cell viability (%)
Numbers only, in %.

# example entries with known answers
O=C1N\C=N/C2=C1C=N[NH]2 :: 88.7
Cc1c(C(=O)c2cccc3ccccc23)c2cccc3c2n1[C@H](CN1CCOCC1)CO3 :: 82.6
CC[C@@H]1C(=O)N(C)c2cnc(Nc3ccc(C(=O)NC4CCN(C)CC4)cc3OC)nc2N1C1CCCC1 :: 114
CO[C@@H]1[C@@H](O)[C@H](O)[C@@H](n2c3c(Cl)cccc3c3c4c(c5c6cccc(Cl)c6[nH]c5c32)C(=O)NC4=O)O[C@H]1CO :: 94.7

Provide cell viability for all items below, preserving their order.
1. C1COC(NC(C2CC2)C2CC2)=N1
2. CN(C)[C@@H](CCOc1cccc2ccccc12)c1ccccc1
3. COc1cc2c(Nc3ccc(Cl)c(Cl)c3F)ncnc2cc1OC[C@@H]1C[C@@H]2CN(C)C[C@@H]2C1
4. CC(C)Cn1cnc2c(N)nc3ccccc3c21

Found:
[91.6, 110, 113, 115]

###

# System: P12-Ichikawa
# Protocol description: cell viability relative to DMSO control; higher = less cytotoxic
# Condition: RPMI 5 mM glucose + 10% dialyzed FBS; 48 h; 0.0632 µM
Readout name: cell viability (%)
One number for each entry, in %.

# example entries with known answers
O=C(O)Cc1cccc(OCCCN(Cc2cccc(C(F)(F)F)c2Cl)CC(c2ccccc2)c2ccccc2)c1 :: 124
O=C(NCc1ccccc1)c1csc(Nc2ccncn2)n1 :: 106
N#Cc1ccc(NC(=O)Nc2ccccc2Br)c2nn[nH]c12 :: 117
CC[C@H]1CN2CCc3cc(OC)c(OC)cc3[C@@H]2C[C@@H]1C[C@H]1NCCc2cc(OC)c(OC)cc21 :: 103
C=CC(=O)Nc1ccc2ncnc(Nc3ccc(OCc4cccc(F)c4)c(Cl)c3)c2c1 :: 111

Turning to the following compound.
Lookup: Report cell viability for C[N]1C=C(C=N1)C2=CC=C3N=CC\4=C(N(C(=O)\C=C4)C5=CC6=C(CCN6C(=O)C=C)C=C5)C3=C2 please.
Found: 115

###

# System: NOMO1
# Protocol description: cell viability relative to DMSO control; higher = less cytotoxic
# Condition: HPLM + 10% dialyzed FBS; 48 h; 1.71 µM
Hi there, I'd appreciate the recorded cell viability for every entry that follows.
One number for each entry, in %.

# example entries with known answers
Oc1ccc2ccccc2c1SSc1c(O)ccc2ccccc12 :: 125
OCCN(CCO)c1nc(N2CCCCC2)c2nc(N(CCO)CCO)nc(N3CCCCC3)c2n1 :: 111
COc1cc2ncnc(Nc3cccc(Cl)c3)c2cc1OC :: 41.4

Turning to the following compound.
Lookup: Give the reported cell viability for COC(=O)[C@H](c1ccccc1Cl)N1CCc2sccc2C1 (system: NOMO1).
Found: 37.4
